Answer each item with its documented pKd.
# experimental system: T1, prefusion-stabilized RSV F ectodomain (DS-Cav1), subtype B (respiratory syncytial virus subtype B)
# T1 construct: extracellular domain; also called Prefusion subtype B
# test details: BLI, IgG on sensor
One number for each entry, as −log10 of the molar value.

ADI-15559 (antibody, V domains shown, IgG; also called Antibody Number 130) VH: QVQLVQSGAEVKKPGSSVKVSCKASGGSLSTYGIHWVRQAPGQGLEWVGGVMTVYGKTTYGQNFQGRVTIAVDRSTNTAYMELSSLTSDDTGTYYCATDSYYVWTGSYPPPFDLWGQGTLVTVSS VL: EIVLTQTPGTQSLSPGQSATLSCRASHSVGNDYLAWYQQKPGQSPRLLIHGAYRRDSGIPDRFIGSGSGTDFTLTIDSLEPDDCAVYYCQQYGSWPLTFGGGTKVDIK	9.01

# return pKd for each item in the list
1. ADI-15587 (antibody, V domains shown, IgG) VH: EVQLVESGGGVVRPGGSLRLSCAASGFKFDDYGMSWVRQAPGKGLEWVSAIIWNSGSTGYADSVKGRFIISRDNAKNSLYLQMNSLRAEDTALYYCARVGGITKWWYYGMDLWGQGTTVTVSS VL: ETTLTQSPSFLSASVGDRVTITCRASQGLSNYLAWYQQKPGRAPKLLIYAASTLQSGVPSRFRGSGSGTEFTLTISSLQPEDLATYYCQHLNSYPLTFGGGTKVEIK
2. ADI-15626 (antibody, V domains shown, IgG) VH: EVQLVESGAEVKKPGSSVKVSCKASGGTFSSYEISWVRQAPGQGLEWMGGINPMFGAANYAQKFQDRVTIIADKSTGTVYMELSSLRSEDTALYYCARERYPSTDDYYRSGRYYGEWGQGTTVTVSS VL: ETTLTQSPSTLSASVGDRVTITCRASQSIRSWLAWYQQKPGKAPKLLIYRASTSDSGVPSRFSGSGSGTEFTLTISSLQPDDFAIYYCQQYNSIPVTFGQGTKLEIK

1: 8.62; 2: 8.47
